B1: Intersectin-1, residues 909 to 971; numbered along this chain, Q15811 (parent)
chain: QGEKVEGLQAQALYPWRAKKDNHLNFNKNDVITVLEQQDMWWFGEVQGQKGWFPKSYVKLISG

Variants of: B1
Test: abundance fitness (aPCA) (normalised: wild type 0, dead -1); higher = more abundant; growth selection in yeast, the domain comes from the species named
Details: Homo sapiens
Response key: criterion met means abundance fitness >= -0.1; criterion not met means abundance fitness < -0.1.

Look over these answered cases.
[
  {
    "mutant.code": "K20P",
    "category.label": "criterion not met"
  },
  {
    "mutant.code": "W52F",
    "category.label": "criterion not met"
  }
]

Does the variant M40K have recorded abundance fitness that is -0.1 or more? criterion met

Would you mind doing W16I as well? criterion met

Also E36W ? criterion not met

Entry F53G please criterion not met
